procedure_details: Drug concentration in tumor by radioactivity (Application Example 2)
Type: in vivo, CDF1 female mouse
settings: mouse, iv, 48 hours, i.v., total of adriamycin and adriamycin dimer, 14C, read-out: % of dose/g (tumor)
Where a name gives a salt, the structure may show the parent alone.
value_type: tissue uptake at 48 h (%ID/g)
Field: numeric (%ID/g). Do not append units.

Ask | Can you look up the measured tissue uptake at 48 h of COc1cccc2c1C(=O)c1c(O)c3c(c(O)c1C2=O)C[C@@](O)(C(=O)CO)C[C@@H]3O[C@H]1C[C@H](N)[C@H](O)[C@H](C)O1 [Adriamycin hydrochloride, adriamycin hydrochloride] for me?
Reply | 1

====

procedure_details: Drug concentration in heart by radioactivity (Application Example 2)
Assay type: in vivo, CDF1 female mouse
settings: mouse, iv, 4 hours, i.v., total of adriamycin and adriamycin dimer, 14C, read-out: % of dose/g (heart)
Structures can show the parent of a compound that is named as a salt.
value_type: tissue uptake at 4 h (%ID/g)
Field: numeric (%ID/g). Do not append units.

Ask | Can you look up the measured tissue uptake at 4 h of COc1cccc2c1C(=O)c1c(O)c3c(c(O)c1C2=O)C[C@@](O)(C(=O)CO)C[C@@H]3O[C@H]1C[C@H](N)[C@H](O)[C@H](C)O1 [Adriamycin hydrochloride, adriamycin hydrochloride] for me?
Reply | 4.6

====

procedure_details: Drug concentration in heart by radioactivity (Application Example 2)
Format: in vivo, CDF1 female mouse
settings: mouse, iv, 1 hour, i.v., total of adriamycin and adriamycin dimer, 14C, read-out: % of dose/g (heart)
Where a name gives a salt, the structure may show the parent alone.
value_type: tissue uptake at 1 h (%ID/g)
Field: numeric (%ID/g). Do not append units.

Ask | Can you look up the measured tissue uptake at 1 h of COc1cccc2c1C(=O)c1c(O)c3c(c(O)c1C2=O)C[C@@](O)(C(=O)CO)C[C@@H]3O[C@H]1C[C@H](N)[C@H](O)[C@H](C)O1 [Adriamycin hydrochloride, adriamycin hydrochloride] for me?
Reply | 7

====

procedure_details: Drug concentration in heart by radioactivity (Application Example 2)
Type: in vivo, CDF1 female mouse
settings: mouse, iv, 48 hours, i.v., total of adriamycin and adriamycin dimer, 14C, read-out: % of dose/g (heart)
Counter-ions that a name gives are not always drawn.
value_type: tissue uptake at 48 h (%ID/g)
Field: numeric (%ID/g). Do not append units.

Ask | Can you look up the measured tissue uptake at 48 h of COc1cccc2c1C(=O)c1c(O)c3c(c(O)c1C2=O)C[C@@](O)(C(=O)CO)C[C@@H]3O[C@H]1C[C@H](N)[C@H](O)[C@H](C)O1 [Adriamycin hydrochloride, adriamycin hydrochloride] for me?
Reply | 0.5

====

procedure_details: Drug concentration in heart by radioactivity (Application Example 2)
Type: in vivo, CDF1 female mouse
settings: mouse, iv, 15 minutes, i.v., total of adriamycin and adriamycin dimer, 14C, read-out: % of dose/g (heart)
Counter-ions that a name gives are not always drawn.
value_type: tissue uptake at 0.25 h
Answer format: number, then unit.

Ask | Can you look up the measured tissue uptake at 0.25 h of COc1cccc2c1C(=O)c1c(O)c3c(c(O)c1C2=O)C[C@@](O)(C(=O)CO)C[C@@H]3O[C@H]1C[C@H](N)[C@H](O)[C@H](C)O1 [Adriamycin hydrochloride, adriamycin hydrochloride] for me?
Reply | 10.5 %ID/g

====

procedure_details: LD50 for comparison of chemotherapeutic index (Table 2)
settings: mouse, in vivo, iv
Counter-ions that a name gives are not always drawn.
value_type: LD50 (mg/kg)
Field: numeric (mg/kg). Do not append units.

Ask | Can you look up the measured LD50 of COc1cccc2c1C(=O)c1c(O)c3c(c(O)c1C2=O)C[C@@](O)(C(=O)CO)C[C@@H]3O[C@H]1C[C@H](N)[C@H](O)[C@H](C)O1 [Adriamycin hydrochloride, adriamycin hydrochloride] for me?
Reply | 15

====

procedure_details: Drug concentration in heart by radioactivity (Application Example 2)
Type: in vivo, CDF1 female mouse
settings: mouse, iv, 24 hours, i.v., total of adriamycin and adriamycin dimer, 14C, read-out: % of dose/g (heart)
Counter-ions that a name gives are not always drawn.
value_type: tissue uptake at 24 h

Ask | Can you look up the measured tissue uptake at 24 h of COc1cccc2c1C(=O)c1c(O)c3c(c(O)c1C2=O)C[C@@](O)(C(=O)CO)C[C@@H]3O[C@H]1C[C@H](N)[C@H](O)[C@H](C)O1 [Adriamycin hydrochloride, adriamycin hydrochloride] for me?
Reply | 1.1 %ID/g

====

procedure_details: Drug concentration in tumor by radioactivity (Application Example 2)
Type: in vivo, CDF1 female mouse
settings: mouse, iv, 15 minutes, i.v., total of adriamycin and adriamycin dimer, 14C, read-out: % of dose/g (tumor)
Structures can show the parent of a compound that is named as a salt.
value_type: tissue uptake at 0.25 h (%ID/g)
Field: numeric (%ID/g). Do not append units.

Ask | Can you look up the measured tissue uptake at 0.25 h of COc1cccc2c1C(=O)c1c(O)c3c(c(O)c1C2=O)C[C@@](O)(C(=O)CO)C[C@@H]3O[C@H]1C[C@H](N)[C@H](O)[C@H](C)O1 [Adriamycin hydrochloride, adriamycin hydrochloride] for me?
Reply | 2.3

====

procedure_details: Drug concentration in tumor by radioactivity (Application Example 2)
Type: in vivo, CDF1 female mouse
settings: mouse, iv, 24 hours, i.v., total of adriamycin and adriamycin dimer, 14C, read-out: % of dose/g (tumor)
Counter-ions that a name gives are not always drawn.
value_type: tissue uptake at 24 h

Ask | Can you look up the measured tissue uptake at 24 h of COc1cccc2c1C(=O)c1c(O)c3c(c(O)c1C2=O)C[C@@](O)(C(=O)CO)C[C@@H]3O[C@H]1C[C@H](N)[C@H](O)[C@H](C)O1 [Adriamycin hydrochloride, adriamycin hydrochloride] for me?
Reply | 1.3 %ID/g

From: patent US6080396A
